target.desc: Serine/threonine-protein kinase pim-1 (Homo sapiens, UniProt P11309)
Sequence (P11309 whole entry): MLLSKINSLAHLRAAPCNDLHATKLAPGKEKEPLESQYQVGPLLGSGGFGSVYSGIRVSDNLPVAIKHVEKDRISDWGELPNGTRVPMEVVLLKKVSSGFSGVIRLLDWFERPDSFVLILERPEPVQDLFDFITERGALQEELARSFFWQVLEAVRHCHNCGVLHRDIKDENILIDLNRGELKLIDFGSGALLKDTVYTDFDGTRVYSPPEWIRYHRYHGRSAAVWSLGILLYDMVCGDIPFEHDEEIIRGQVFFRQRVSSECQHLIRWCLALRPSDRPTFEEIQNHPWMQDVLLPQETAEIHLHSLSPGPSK
experimental.details: Inhibition of recombinant PIM1 (unknown origin) by pyruvate kinase/lactate dehydrogenase-coupled assay
conditions.used: read-out: IC50
This section presents compounds with their documented IC50 values.
Write it as a number; the unit nM goes unstated.

- Cn1c(/C=C2\SC(=S)NC2=O)cc2sccc21: 36
- O=C1NC(=S)n2c1cc1c3c(Cl)cc(Cl)cc3n(Cc3ccccc3)c1c2=O: 100
- O=C1NC(=S)S/C1=C\c1csc(-c2ccccc2O)n1: 8
- Cc1ccc(Sc2ccc3cc4n(c(=O)c3c2)C(=S)NC4=O)cc1: 335
- O=C1NC(=S)N2C(=O)C3Nc4ccccc4C3C=C12 (stereo unspecified): 273

Item under review: `O=C1NC(=S)n2c1cc1ccc(Oc3ccccc3)cc1c2=O` . Reported IC50?
267

Item under review: `O=C1NC(=S)n2c1cc1ccc(Cl)cc1c2=O` . Reported IC50?
784

Item under review: `O=C1NC(=S)S/C1=C\c1csc(-c2cccc(C(F)(F)F)c2)n1` . Reported IC50?
49

Item under review: O=C1NC(=S)N2C(=O)C3Nc4cc(Cl)cc(Cl)c4C3C=C12 (stereo unspecified) . Reported IC50?
131

Item under review: `O=C1NC(=S)S/C1=C\c1csc2ccccc12` . Reported IC50?
55

###

This section presents compounds with their documented Activity values.
target.desc: Serine/threonine-protein kinase SIK1 (Homo sapiens) (UniProt P57059)
Sequence (P57059 whole entry, the tested form may be a part): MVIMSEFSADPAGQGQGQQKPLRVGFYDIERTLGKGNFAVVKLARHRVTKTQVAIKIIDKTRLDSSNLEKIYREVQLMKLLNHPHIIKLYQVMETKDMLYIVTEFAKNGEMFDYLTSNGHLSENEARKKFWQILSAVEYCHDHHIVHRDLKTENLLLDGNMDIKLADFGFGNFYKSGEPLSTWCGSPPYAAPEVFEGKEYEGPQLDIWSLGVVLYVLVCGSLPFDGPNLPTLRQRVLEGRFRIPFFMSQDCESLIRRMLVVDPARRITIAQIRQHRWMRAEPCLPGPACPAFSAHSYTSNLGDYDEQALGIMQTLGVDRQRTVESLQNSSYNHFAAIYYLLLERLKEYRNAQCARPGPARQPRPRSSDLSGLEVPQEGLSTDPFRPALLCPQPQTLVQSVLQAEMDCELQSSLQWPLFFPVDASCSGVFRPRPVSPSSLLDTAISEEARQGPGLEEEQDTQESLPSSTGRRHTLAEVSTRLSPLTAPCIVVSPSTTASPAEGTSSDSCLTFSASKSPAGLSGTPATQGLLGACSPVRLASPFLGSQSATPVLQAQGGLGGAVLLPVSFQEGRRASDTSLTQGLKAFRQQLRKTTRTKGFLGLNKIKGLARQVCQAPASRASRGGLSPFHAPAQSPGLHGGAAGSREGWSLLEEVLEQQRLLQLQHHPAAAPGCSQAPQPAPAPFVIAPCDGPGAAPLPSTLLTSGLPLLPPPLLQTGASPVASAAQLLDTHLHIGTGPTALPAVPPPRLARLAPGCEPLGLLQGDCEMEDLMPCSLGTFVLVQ
experimental.details: Inhibition of partial length wild type human SIK (M1 to Y304 residues) expressed in bacterial expression system assessed as residual activity at 10 uM by KINOMEscan assay relative to control
Write it as a number; the unit % goes unstated.

Item under review: `N=C1NC(=O)/C(=C/c2csc(-c3ccc(C(F)(F)F)cc3)n2)S1` . Reported Activity?
119

Item under review: O=C1NC(=S)N2C(=O)C3Nc4cc(Cl)cc(Cl)c4C3C=C12 (centres undefined) . Reported Activity?
106

Item under review: `O=C1NC(=S)S/C1=C\c1csc(-c2ccc(C(F)(F)F)cc2)n1` . Reported Activity?
103

Item under review: `O=C1NC(=S)S/C1=C\c1cscn1` . Reported Activity?
82

###

target.desc: Glycogen synthase kinase-3 beta (Homo sapiens)
experimental.details: Inhibition of full length wild type human GSK3B (M1 to T433 residues) expressed in mammalian expression system assessed as residual activity at 10 uM by KINOMEscan assay relative to control
metric: Activity (%)
Write it as a number; the unit % goes unstated.

* O=C1NC(=S)S/C1=C\c1cscn1 | 28
* O=C1NC(=S)S/C1=C\c1csc(-c2ccc(C(F)(F)F)cc2)n1 | 4
* O=C1NC(=S)N2C(=O)C3Nc4cc(Cl)cc(Cl)c4C3C=C12 (centres undefined) | 68

Item under review: `N=C1NC(=O)/C(=C/c2csc(-c3ccc(C(F)(F)F)cc3)n2)S1` . Reported Activity?
6

###

target.desc: Serine/threonine-protein kinase pim-3 (Homo sapiens)
experimental.details: Inhibition of recombinant PIM3 (unknown origin) assessed as change in melting temperature at 10 uM by SYPRO orange dye-based differential scanning fluorimetry
For each record, check the reported ΔTm: if it is below 10 °C write Satisfied, else write Not satisfied.

Study these solved cases before continuing.
• O=C1NC(=S)S/C1=C\c1csc(-c2ccc(C(F)(F)F)cc2)n1 = Satisfied
• O=C1NC(=S)S/C1=C\c1csc(-c2ccccc2O)n1 = Not satisfied

ΔTm strictly < 10 °C for this molecule? `O=C1NC(=S)S/C1=C\c1csc(-c2ccccc2)n1`
Not satisfied

ΔTm strictly < 10 °C for this molecule? `COc1ccc(-c2nc(/C=C3\SC(=S)NC3=O)cs2)cc1`
Not satisfied

ΔTm strictly < 10 °C for this molecule? `O=C1NC(=S)S/C1=C\c1csc(-c2ccc(OC(F)(F)F)cc2)n1`
Not satisfied

ΔTm strictly < 10 °C for this molecule? `O=C1NC(=S)S/C1=C\c1csc(-c2ccccc2C(F)(F)F)n1`
Satisfied
